Quick reference: pIC50 of the listed items.
test system: M. tuberculosis growth, meropenem IC50 shift with compound; assay: confirmation, meropenem IC50 shift (AID 485340); conditions: compound alone IC50 vs Mtb; compound dose (near its own IC50) 9.38 µM;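 also: growth read after one week of culture plus overnight Alamar Blue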
// field semantics: pIC50 = negative decimal log of concentration (mol/L)

The compound C[C@H](NC(=O)c1[nH]cnc1C(=O)Nc1ccc(Cl)cc1)C(=O)OC(C)(C)C , when measured on M. tuberculosis growth, meropenem IC50 shift with compound, yielded pIC50 of 4.98

Tested on M. tuberculosis growth, meropenem IC50 shift with compound, the item COC(=O)c1c(-c2ccc(OC)cc2)oc2ccc(-c3cc(OC)c(OC)c(OC)c3)cc12 showed pIC50 equal to 5.11

These measurements were taken from PubChem BioAssay AID485340.
